Test: Apparent passive permeability of the compound by PAMPA
Format: ADME
# note: boundary value 0.6 ×10⁻⁶ cm/s maps to 0; Papp below it maps to 1

Query block: A record lists `Cc1cc(C(F)(F)F)ccc1NC(=O)c1cc2nc(Nc3c(F)cccc3Cl)[nH]c2c2c1OC(C)(C)C2` . Is its Papp below 0.6 ×10⁻⁶ cm/s?
Result block: 1

Query block: A record lists `CC1(C)Cc2c(c(C(=O)Nc3ccc(C(F)(F)F)cn3)cc3nc(Nc4c(Cl)cccc4Cl)[nH]c23)O1` . Is its Papp below 0.6 ×10⁻⁶ cm/s?
Result block: 0

Query block: A record lists `CC1(C)Cc2c(c(C(=O)Nc3ccc(F)c(C(F)(F)F)c3)cc3nc(Nc4c(F)cccc4Cl)[nH]c23)O1` . Is its Papp below 0.6 ×10⁻⁶ cm/s?
Result block: 1

Query block: A record lists `CC1(C)Cc2c(c(C(=O)Nc3cc(C(F)(F)F)ccc3F)cc3nc(Nc4c(F)cccc4Cl)[nH]c23)O1` . Is its Papp below 0.6 ×10⁻⁶ cm/s?
Result block: 0

Query block: A record lists `Cc1cccc(Cl)c1Nc1nc2cc(C(=O)Nc3cc(C(F)(F)F)ccc3F)c3c(c2[nH]1)CC(C)(C)O3` . Is its Papp below 0.6 ×10⁻⁶ cm/s?
Result block: 0

Query block: A record lists `CC1(C)Cc2c(c(C(=O)Nc3ccccc3C(F)(F)F)cc3nc(Nc4c(F)cccc4Cl)[nH]c23)O1` . Is its Papp below 0.6 ×10⁻⁶ cm/s?
Result block: 1

----------
Experiment: Metabolic stability in human liver microsomes assessed as parent compound remaining at 1 uM after 60 mins in presence of NADPH by LC-MS/MS analysis
Assay type: ADME, microsome
Conditions: read-out: Stability
Assign remaining at 1 h, 1 µM to each entry below.
Give the quantity in %, number only.

Query block: Could you share which remaining at 1 h, 1 µM value was measured for `Cn1c(Nc2c(F)cccc2Cl)nc2cc(C(=O)Nc3cccc(C(F)(F)F)c3)c3c(c21)CC(C)(C)O3` ?
Result block: 98

Query block: Could you share which remaining at 1 h, 1 µM value was measured for `CC1(C)Cc2c(c(C(=O)Nc3ccc(F)c(C(F)(F)F)c3)cc3nc(Nc4c(F)cccc4Cl)[nH]c23)O1` ?
Result block: 100

Query block: Could you share which remaining at 1 h, 1 µM value was measured for `Cn1c(Nc2c(F)cccc2Cl)nc2cc(C(=O)Nc3ccc(C(F)(F)F)cn3)c3c(c21)CC(C)(C)O3` ?
Result block: 58

Query block: Could you share which remaining at 1 h, 1 µM value was measured for `CC1(C)Cc2c(c(C(=O)Nc3cc(C(F)(F)F)ccc3F)cc3nc(Nc4c(F)cccc4Cl)[nH]c23)O1` ?
Result block: 89

----------
Assay: Metabolic stability in rat liver microsomes assessed as parent compound remaining at 1 uM after 60 mins in presence of NADPH by LC-MS/MS analysis
Format: ADME, microsome
Details: read-out: Stability
ASSAY_METRIC: remaining at 1 h, 1 µM (%)
Give the quantity in %, number only.

Query block: Could you share which remaining at 1 h, 1 µM value was measured for `CC1(C)Cc2c(c(C(=O)Nc3cc(C4CC4)ccc3F)cc3nc(Nc4c(F)cccc4Cl)[nH]c23)O1` ?
Result block: 93

Query block: Could you share which remaining at 1 h, 1 µM value was measured for `CC1(C)Cc2c(c(C(=O)Nc3ccc(C(F)(F)F)cn3)cc3nc(Nc4c(Cl)cccc4Cl)[nH]c23)O1` ?
Result block: 88

Query block: Could you share which remaining at 1 h, 1 µM value was measured for `Cn1c(Nc2c(F)cccc2Cl)nc2cc(C(=O)Nc3ccc(C(F)(F)F)cn3)c3c(c21)CC(C)(C)O3` ?
Result block: 66

Query block: Could you share which remaining at 1 h, 1 µM value was measured for `CC1(C)Cc2c(c(C(=O)Nc3ccc(F)c(C(F)(F)F)c3)cc3nc(Nc4c(F)cccc4Cl)[nH]c23)O1` ?
Result block: 91

----------
Test: AUC (0 to 24 hrs) in Beagle dog at 10 mg/kg, po
Type: ADME, organism-based, Canis lupus familiaris
Parameters: dose 10 mg/kg, time < 24 hr, route oral
Details: Beagle, in vivo
ASSAY_METRIC: AUC(0-t) at 24 h

Query block: Could you share which AUC(0-t) at 24 h value was measured for `Cc1cccc(Cl)c1Nc1nc2cc(C(=O)Nc3cc(C(F)(F)F)ccc3F)c3c(c2[nH]1)CC(C)(C)O3` ?
Result block: 12900 ng·h/mL

Query block: Could you share which AUC(0-t) at 24 h value was measured for `CC1(C)Cc2c(c(C(=O)Nc3ccc(F)c(C(F)(F)F)c3)cc3nc(Nc4c(F)cccc4Cl)[nH]c23)O1` ?
Result block: 8240 ng·h/mL

----------
Assay: Drug uptake in brain of Dunkin-Hartley guinea pig LPS-induced hyperalgesia pain model at 30 mg/kg, po administered 2 hrs prior to LPS challenge measured 7 hrs post dose
Format: ADME, organism-based, Cavia porcellus
Conditions: read-out: Drug uptake
ASSAY_METRIC: concentration at 7 h (ng/g)
Give the quantity in ng/g, number only.

Query block: Could you share which concentration at 7 h value was measured for `CC1(C)Cc2c(c(C(=O)Nc3ccc(F)c(C(F)(F)F)c3)cc3nc(Nc4c(F)cccc4Cl)[nH]c23)O1` ?
Result block: 87

----------
Biological target: Prostaglandin E synthase (Homo sapiens)
Sequence (O14684 whole entry): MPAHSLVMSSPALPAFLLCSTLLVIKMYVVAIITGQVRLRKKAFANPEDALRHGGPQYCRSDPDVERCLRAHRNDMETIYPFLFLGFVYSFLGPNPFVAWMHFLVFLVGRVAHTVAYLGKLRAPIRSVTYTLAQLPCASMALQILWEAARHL
Test: Inhibition of mPGES1 in human A549 cells assessed as reduction in IL-1beta-induced PGE2 production preincubated for 30 mins followed by incubation with IL-1beta for 16 to 20 hrs measured after 10 mins by HTRF assay
Format: cell-based
Assign pIC50 to each entry below.
In textbook form, pIC50 equals minus log to base ten of the concentration in mol/L.

Query block: Param readout = pIC50; param system = Prostaglandin E synthase (Homo sapiens); param query = `CC1(C)Cc2c(c(C(=O)Nc3cc(C(F)F)ccc3F)cc3nc(Nc4c(F)cccc4Cl)[nH]c23)O1` ; response: value
Result block: 8.20

Query block: Param readout = pIC50; param system = Prostaglandin E synthase (Homo sapiens); param query = `CC1(C)Cc2c(c(C(=O)Nc3ccc(C(F)(F)F)cn3)cc3nc(Nc4c(Cl)cccc4Cl)[nH]c23)O1` ; response: value
Result block: 8.39

Query block: Param readout = pIC50; param system = Prostaglandin E synthase (Homo sapiens); param query = `Cn1c(Nc2c(F)cccc2Cl)nc2cc(C(=O)Nc3ccc(C(F)(F)F)cn3)c3c(c21)CC(C)(C)O3` ; response: value
Result block: 8.40

Query block: Param readout = pIC50; param system = Prostaglandin E synthase (Homo sapiens); param query = `CC1(C)Cc2c(c(C(=O)Nc3ccccc3C(F)(F)F)cc3nc(Nc4c(F)cccc4Cl)[nH]c23)O1` ; response: value
Result block: 8.01

Query block: Param readout = pIC50; param system = Prostaglandin E synthase (Homo sapiens); param query = `Cc1cc(C(F)(F)F)ccc1NC(=O)c1cc2nc(Nc3c(F)cccc3Cl)[nH]c2c2c1OC(C)(C)C2` ; response: value
Result block: 8.22

Query block: Param readout = pIC50; param system = Prostaglandin E synthase (Homo sapiens); param query = `CC1(C)Cc2c(c(C(=O)Nc3c(F)cccc3F)cc3nc(Nc4c(Cl)cccc4Cl)[nH]c23)O1` ; response: value
Result block: 7.82

Query block: Param readout = pIC50; param system = Prostaglandin E synthase (Homo sapiens); param query = `CC1(C)Cc2c(c(C(=O)Nc3ccc(F)c(C(F)(F)F)c3)cc3nc(Nc4c(F)cccc4Cl)[nH]c23)O1` ; response: value
Result block: 7.85

Query block: Param readout = pIC50; param system = Prostaglandin E synthase (Homo sapiens); param query = `CC1(C)Cc2c(c(C(=O)Nc3cc(C4CC4)ccc3F)cc3nc(Nc4c(F)cccc4Cl)[nH]c23)O1` ; response: value
Result block: 8.22

----------
Experiment: Oral bioavailability in Sprague-Dawley rat at 10 mg/kg
Format: ADME, organism-based
Conditions: in vivo
Assign bioavailability to each entry below.
Give the quantity in %, number only.

Query block: Could you share which bioavailability value was measured for `Cc1cccc(Cl)c1Nc1nc2cc(C(=O)Nc3cc(C(F)(F)F)ccc3F)c3c(c2[nH]1)CC(C)(C)O3` ?
Result block: 14

Query block: Could you share which bioavailability value was measured for `CC1(C)Cc2c(c(C(=O)Nc3ccc(F)c(C(F)(F)F)c3)cc3nc(Nc4c(F)cccc4Cl)[nH]c23)O1` ?
Result block: 91

Query block: Could you share which bioavailability value was measured for `CC1(C)Cc2c(c(C(=O)Nc3ccc(C(F)(F)F)cn3)cc3nc(Nc4c(Cl)cccc4Cl)[nH]c23)O1` ?
Result block: 43

----------
Experiment: Inhibition of recombinant human COX2 assessed as decrease in PGE2 production at 10 uM using arachidonic acid as substrate preincubated for 15 mins prior to substrate addition for 5 mins relative to control
Conditions: recombinant COX2, probe arachidonic acid
Quick rule for you: inhibition at 5 min, 10 µM at 30% or higher means y, lower means n.

Query block: Exam item: decide whether the reported inhibition at 5 min, 10 µM for `Cc1cccc(Cl)c1Nc1nc2cc(C(=O)Nc3cc(C(F)(F)F)ccc3F)c3c(c2[nH]1)CC(C)(C)O3` is at least 30%.
Result block: y

Query block: Exam item: decide whether the reported inhibition at 5 min, 10 µM for `CC1(C)Cc2c(c(C(=O)Nc3ccc(C(F)(F)F)cn3)cc3nc(Nc4c(Cl)cccc4Cl)[nH]c23)O1` is at least 30%.
Result block: y

Query block: Exam item: decide whether the reported inhibition at 5 min, 10 µM for `CC1(C)Cc2c(c(C(=O)Nc3cc(C(F)(F)F)ccc3F)cc3nc(Nc4c(F)cccc4Cl)[nH]c23)O1` is at least 30%.
Result block: n

Query block: Exam item: decide whether the reported inhibition at 5 min, 10 µM for `Cc1cccc(Cl)c1Nc1nc2cc(C(=O)Nc3cc(C(F)F)ccc3F)c3c(c2[nH]1)CC(C)(C)O3` is at least 30%.
Result block: y

Query block: Exam item: decide whether the reported inhibition at 5 min, 10 µM for `Cn1c(Nc2c(F)cccc2Cl)nc2cc(C(=O)Nc3cccc(C(F)(F)F)c3)c3c(c21)CC(C)(C)O3` is at least 30%.
Result block: n

Query block: Exam item: decide whether the reported inhibition at 5 min, 10 µM for `CC1(C)Cc2c(c(C(=O)Nc3ccc(F)c(C(F)(F)F)c3)cc3nc(Nc4c(F)cccc4Cl)[nH]c23)O1` is at least 30%.
Result block: n
